- target_under_test: B′γ1 regulatory subunit (UniProt Q13362-2 1-449)
- test_method_notes: ITC
pKd: −log10 of the molar value.
measured_endpoint: pKd

binder: LSTIDEEGE [Cyk4 S149E/S151E peptide (synthetic, phosphomimetic)]
measured_endpoint: pKd
recorded_measurement: 5.89

I = NKRLSTIDEEGS [Cyk4 peptide S149E]
II = LSTIDESGS (synthetic peptide; exact ends and termini not given, the printed motif 143-LSTIDESGS-151 is used as the core) [native Cyk4 peptide (synthetic)]
For the pair I and II , which member has the lower pKd number? Mark your answer with the label of the selected entry. II
(II: 4.64, I: 5.80)
